# Measurement notes: refractive index (Na D-line) (dimensionless); wn = mass fraction of the nth substance listed
# Details: 298.15 K; 84.5 kPa; Liquid; Standard Abbe refractometry; w1 = 0.02
Readout type: refractive index
Give bare numbers.

Task: Can you look up the measured refractive index of O=C[C@H](O)[C@@H](O)[C@@H](O)CO [L-arabinose] + O for me?
Result: 1.33523

// input: 3 molecules below; output: refractive index for each
1. O=C(CO)[C@@H](O)[C@H](O)[C@H](O)CO [D-fructose] + O
2. O=C[C@H](O)[C@@H](O)[C@H](O)[C@H](O)CO [D-glucose] + O
3. OC[C@H]1O[C@@](CO)(O[C@H]2O[C@H](CO)[C@@H](O)[C@H](O)[C@H]2O)[C@@H](O)[C@@H]1O [D-sucrose] + O

Result:
1. 1.33525
2. 1.33529
3. 1.33518

FYI, the data here is from the NIST ThermoML archive (doi:10.1021/acs.jced.8b00678).
